- System: DNA topoisomerase II
- ASSAY METHOD TEXT: DNA Breakage Assay: topoisomerase II-mediated DNA breakage (linearized 32P-labeled PBR 322 plasmid, agarose gel)
- Type: biochemical, calf
- SETUP CONDITIONS: concentration of compound which cleaves the DNA to smaller fragments; 30 minutes incubation
Overview of recorded Topoisomerase II-mediated DNA breakage, Concentration for various compounds
ASSAY METRIC: Topoisomerase II-mediated DNA breakage, Concentration (µg/mL)

COMPOUND	OUTPUT UNIT	READING
NC1CCN(c2c(F)cc3c(=O)c4c(=O)[nH]sc4n(C4CC4)c3c2F)C1 (stereo not shown) [Example 11]	µg/mL	32
O=c1[nH]sc2c1c(=O)c1cc(F)c(N3CCCNCC3)c(F)c1n2C1CC1 [Example 7]	µg/mL	32
O=c1[nH]sc2c1c(=O)c1cc(F)c(N3CCNCC3)cc1n2C1CC1 [Example 19]	µg/mL	64
O=c1[nH]sc2c1c(=O)c1cc(F)c(N3CCCC3)c(F)c1n2C1CC1 [Example 32]	µg/mL	64

---

- Test system: DNA topoisomerase II
- ASSAY METHOD TEXT: DNA Breakage Assay: topoisomerase II-mediated DNA breakage (linearized 32P-labeled PBR 322 plasmid, agarose gel)
- Type: biochemical, calf
- SETUP CONDITIONS: concentration of compound which cleaves the DNA to smaller fragments; 30 minutes incubation
ASSAY METRIC: Topoisomerase II-mediated DNA breakage, Concentration

MOLECULE	READING
O=c1[nH]sc2c1c(=O)c1cc(F)c(N3CCC(O)C3)cc1n2C1CC1 (stereo not drawn)	32 to 128 µg/mL
CCn1c2s[nH]c(=O)c2c(=O)c2cc(F)c(N3CCC(N)C3)c(F)c21 (stereo not drawn)	32 to 64 µg/mL
CCn1c2s[nH]c(=O)c2c(=O)c2cc(F)c(N3CCN(C)CC3)c(F)c21	32 to 64 µg/mL
